The reported measurements were obtained from patent US10221197B2.

Biological target: UniProt P42338
Experiment: TR-FRET enzymatic assay of PI3K isoforms (PI3Kβ)
Details: TR-FRET, 2×Km ATP, 2 μM PIP2, incubated for 30 minutes at 25° C.; read-out: β IC50
Method: The compounds of formula (I) were characterized for their enzymatic activity against the PI3K isoforms. Certain compounds of the present application, including certain compounds of formula (II) and (III) were also characterized for their enzymatic activity against PI3K isoforms. The activities were measured using a time-resolved fluorescence resonance energy transfer (TR-FRET) assay.
assayReadout: IC50 (nM)

Consider the worked cases shown below.
- molecule: "C[C@H](Nc1ncnc(N)c1C#N)c1nc2cccc(Cl)c2c(=O)n1-c1cccc(NC(=O)Nc2ccccc2C(F)(F)F)c1"
  IC50 [nM]: 5
- molecule: "CCNC(=O)Nc1ccc(Cl)c(-n2c([C@H](C)Nc3ncnc(N)c3C#N)nc3cccc(Cl)c3c2=O)c1 (atropisomer, axis not shown) [Compound 58]"
  IC50 [nM]: 1300
- molecule: "C[C@H](Nc1ncnc(N)c1C#N)c1nc2cccc(Cl)c2c(=O)n1-c1cccc(NC(=O)NCCC(=O)O)c1"
  IC50 [nM]: 33
- molecule: "CONC(=O)Nc1cccc(-n2c([C@H](C)Oc3ncnc4scnc34)nc3cccc(Cl)c3c2=O)c1"
  IC50 [nM]: 48

[I] N#Cc1c(N)ncnc1N1CCC[C@H]1c1nc2cccc(Cl)c2c(=O)n1-c1cccc(NC(=O)NCC(F)(F)F)c1
[II] C[C@H](Nc1ncnc(N)c1C#N)c1nc2cccc(Cl)c2c(=O)n1-c1cccc(NC(=O)NCCF)c1
[III] C[C@H](Nc1ncnc(N)c1C#N)c1nc2cccc(Cl)c2c(=O)n1-c1cccc(NC(=O)NC2CCCC2)c1
INPUT: List from greatest to least IC50. Your reply should list the labels following the order given in the request.
OUTPUT: I, II, III

====

# IC50 values compiled below
target: PI3Kγ (Homo sapiens (Human), UniProt P48736); experiment: TR-FRET enzymatic assay of PI3K isoforms (PI3Kγ); type: biochemical; conditions: read-out: γ IC50
Sequence (P48736 whole entry, canonical isoform): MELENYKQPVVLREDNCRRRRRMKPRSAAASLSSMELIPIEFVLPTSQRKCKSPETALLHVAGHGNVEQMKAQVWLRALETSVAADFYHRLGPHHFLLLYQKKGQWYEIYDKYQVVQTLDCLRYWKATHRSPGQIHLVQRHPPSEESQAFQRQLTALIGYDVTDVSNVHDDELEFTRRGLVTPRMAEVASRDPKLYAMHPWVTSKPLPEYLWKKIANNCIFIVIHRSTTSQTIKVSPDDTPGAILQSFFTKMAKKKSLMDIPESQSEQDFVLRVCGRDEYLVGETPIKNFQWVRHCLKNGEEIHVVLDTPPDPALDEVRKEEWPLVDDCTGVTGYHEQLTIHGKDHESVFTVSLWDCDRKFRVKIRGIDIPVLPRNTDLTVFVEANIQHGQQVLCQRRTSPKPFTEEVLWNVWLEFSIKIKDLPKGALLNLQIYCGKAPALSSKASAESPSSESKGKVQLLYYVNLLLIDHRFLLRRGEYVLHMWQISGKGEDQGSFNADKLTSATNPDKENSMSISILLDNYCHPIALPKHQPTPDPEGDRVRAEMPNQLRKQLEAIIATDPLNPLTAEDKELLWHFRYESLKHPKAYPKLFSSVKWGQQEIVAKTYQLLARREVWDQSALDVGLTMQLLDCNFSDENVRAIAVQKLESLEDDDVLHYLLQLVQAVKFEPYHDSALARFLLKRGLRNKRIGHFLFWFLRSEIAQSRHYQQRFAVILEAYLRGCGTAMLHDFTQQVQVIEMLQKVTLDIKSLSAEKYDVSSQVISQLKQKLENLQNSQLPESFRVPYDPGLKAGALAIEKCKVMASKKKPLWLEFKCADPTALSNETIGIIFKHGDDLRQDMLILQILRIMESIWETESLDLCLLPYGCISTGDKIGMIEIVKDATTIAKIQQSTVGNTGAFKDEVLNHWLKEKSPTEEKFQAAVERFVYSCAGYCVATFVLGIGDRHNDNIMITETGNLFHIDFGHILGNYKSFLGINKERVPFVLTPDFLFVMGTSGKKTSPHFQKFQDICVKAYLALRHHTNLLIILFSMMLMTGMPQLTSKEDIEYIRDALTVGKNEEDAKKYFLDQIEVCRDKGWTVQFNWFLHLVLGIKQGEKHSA
Sequence (Q8WYR1 whole entry partner, canonical isoform): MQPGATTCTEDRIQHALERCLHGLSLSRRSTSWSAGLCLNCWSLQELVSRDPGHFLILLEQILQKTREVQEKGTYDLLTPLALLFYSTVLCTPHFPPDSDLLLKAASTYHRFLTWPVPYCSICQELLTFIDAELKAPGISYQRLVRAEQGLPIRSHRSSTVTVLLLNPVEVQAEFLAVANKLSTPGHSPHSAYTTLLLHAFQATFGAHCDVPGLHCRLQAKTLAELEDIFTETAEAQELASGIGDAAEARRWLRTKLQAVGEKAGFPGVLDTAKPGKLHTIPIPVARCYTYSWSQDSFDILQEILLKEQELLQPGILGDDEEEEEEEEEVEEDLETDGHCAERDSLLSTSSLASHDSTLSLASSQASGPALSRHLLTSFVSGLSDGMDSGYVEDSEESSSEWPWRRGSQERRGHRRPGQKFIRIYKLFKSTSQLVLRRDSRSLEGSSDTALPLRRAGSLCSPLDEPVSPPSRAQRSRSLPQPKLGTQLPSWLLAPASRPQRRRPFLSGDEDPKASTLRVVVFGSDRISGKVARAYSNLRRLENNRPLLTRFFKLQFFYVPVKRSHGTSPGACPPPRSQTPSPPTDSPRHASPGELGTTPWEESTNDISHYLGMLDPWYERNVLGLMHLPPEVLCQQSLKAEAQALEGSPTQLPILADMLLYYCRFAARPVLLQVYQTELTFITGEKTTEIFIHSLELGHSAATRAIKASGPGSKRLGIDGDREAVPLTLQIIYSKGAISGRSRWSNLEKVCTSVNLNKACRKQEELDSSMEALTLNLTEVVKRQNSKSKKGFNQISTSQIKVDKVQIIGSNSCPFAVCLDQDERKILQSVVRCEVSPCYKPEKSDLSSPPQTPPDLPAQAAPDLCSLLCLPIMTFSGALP

Consider the worked cases shown below.
- compound: "N#Cc1c(N)ncnc1N[C@@H](COCc1ccccc1)c1nc2cccc(Cl)c2c(=O)n1-c1cccc(NC(=O)NCCCO)c1 [Compound 130]"
  IC50: "> 10 µM"
- compound: "O=C(NCCCO)Nc1cccc(-n2c([C@H](COCc3ccccc3)Nc3ncnc4[nH]cnc34)nc3cccc(Cl)c3c2=O)c1 [Compound 131]"
  IC50: "> 10 µM"

INPUT: Recorded IC50 for C[C@H](Nc1ncnc(N)c1C#N)c1nc2cccc(Cl)c2c(=O)n1-c1cccc(NC(=O)Nc2ccccc2C#N)c1 [Compound 106] , please?
OUTPUT: > 10 µM

====

target: PI3Kδ (Homo sapiens (Human), UniProt O00329); test: TR-FRET enzymatic assay of PI3K isoforms (PI3Kδ); conditions: 2×Km ATP, 2 μM PIP2, incubated for 30 minutes at 25° C., read-out: δ IC50
Sequence (O00329 whole entry, canonical isoform): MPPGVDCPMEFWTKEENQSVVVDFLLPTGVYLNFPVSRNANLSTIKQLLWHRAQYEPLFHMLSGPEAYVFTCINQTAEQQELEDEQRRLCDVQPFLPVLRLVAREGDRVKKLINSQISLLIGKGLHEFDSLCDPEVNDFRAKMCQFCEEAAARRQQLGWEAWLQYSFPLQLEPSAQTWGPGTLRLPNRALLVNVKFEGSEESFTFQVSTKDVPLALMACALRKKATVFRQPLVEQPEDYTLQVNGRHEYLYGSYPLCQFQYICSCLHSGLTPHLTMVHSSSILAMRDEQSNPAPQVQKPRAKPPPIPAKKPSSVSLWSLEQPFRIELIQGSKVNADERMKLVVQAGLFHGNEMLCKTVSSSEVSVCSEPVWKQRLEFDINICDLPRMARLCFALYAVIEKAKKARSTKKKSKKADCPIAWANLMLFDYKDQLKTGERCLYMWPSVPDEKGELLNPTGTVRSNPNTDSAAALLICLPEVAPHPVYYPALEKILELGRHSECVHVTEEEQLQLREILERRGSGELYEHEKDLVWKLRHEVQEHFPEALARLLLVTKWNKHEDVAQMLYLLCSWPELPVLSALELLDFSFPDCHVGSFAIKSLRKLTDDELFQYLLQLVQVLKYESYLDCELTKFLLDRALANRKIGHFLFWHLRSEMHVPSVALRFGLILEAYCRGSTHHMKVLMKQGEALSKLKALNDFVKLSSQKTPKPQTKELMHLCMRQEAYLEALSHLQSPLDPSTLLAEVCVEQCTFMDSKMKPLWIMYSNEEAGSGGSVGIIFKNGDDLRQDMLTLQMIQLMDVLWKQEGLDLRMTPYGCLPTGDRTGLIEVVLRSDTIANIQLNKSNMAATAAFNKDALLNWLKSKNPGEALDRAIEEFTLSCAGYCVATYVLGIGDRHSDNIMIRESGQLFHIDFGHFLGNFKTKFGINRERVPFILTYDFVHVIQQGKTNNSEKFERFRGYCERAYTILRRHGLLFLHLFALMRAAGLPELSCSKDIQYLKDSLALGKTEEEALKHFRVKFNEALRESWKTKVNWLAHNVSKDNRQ
Sequence (P27986 whole entry partner, canonical isoform): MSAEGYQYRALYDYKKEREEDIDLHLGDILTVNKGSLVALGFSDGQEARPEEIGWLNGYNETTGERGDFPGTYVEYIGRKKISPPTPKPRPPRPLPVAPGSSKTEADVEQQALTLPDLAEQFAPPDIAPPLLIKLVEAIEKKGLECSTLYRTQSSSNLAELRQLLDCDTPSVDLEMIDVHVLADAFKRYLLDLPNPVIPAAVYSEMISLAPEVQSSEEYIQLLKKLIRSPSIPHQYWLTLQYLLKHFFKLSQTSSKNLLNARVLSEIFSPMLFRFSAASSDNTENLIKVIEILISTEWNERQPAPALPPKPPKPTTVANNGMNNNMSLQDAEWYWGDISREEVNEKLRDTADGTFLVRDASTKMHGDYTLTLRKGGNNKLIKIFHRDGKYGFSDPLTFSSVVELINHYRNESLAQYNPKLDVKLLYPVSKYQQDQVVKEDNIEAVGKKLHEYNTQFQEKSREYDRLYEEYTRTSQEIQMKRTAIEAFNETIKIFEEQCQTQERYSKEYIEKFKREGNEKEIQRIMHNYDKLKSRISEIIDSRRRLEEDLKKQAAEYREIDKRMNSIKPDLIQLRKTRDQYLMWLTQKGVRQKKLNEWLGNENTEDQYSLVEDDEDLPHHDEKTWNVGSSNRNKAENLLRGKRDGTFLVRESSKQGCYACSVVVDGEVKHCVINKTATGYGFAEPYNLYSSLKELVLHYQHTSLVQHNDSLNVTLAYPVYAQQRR
pIC50: −log10 of the molar value.
assayReadout: pIC50

- smilesEntry: "C[C@H](Nc1ncnc(N)c1C#N)c1nc2cccc(Cl)c2c(=O)n1-c1cccc(NC(=O)NC(C)(C)C)c1"
  assayedTarget: "PI3Kδ (Homo sapiens (Human), UniProt O00329)"
  pIC50: 8.05
- smilesEntry: "C[C@H](Nc1ncnc2[nH]cnc12)c1nc2cccc(Cl)c2c(=O)n1-c1cccc(NC(=O)Nc2c(Cl)cccc2Cl)c1"
  assayedTarget: "PI3Kδ (Homo sapiens (Human), UniProt O00329)"
  pIC50: 7.52
- smilesEntry: "C[C@H](Nc1nc(N)nc(C(F)F)c1C#N)c1nc2c(F)ccc(Cl)c2c(=O)n1-c1cccc(C(N)=O)c1"
  assayedTarget: "PI3Kδ (Homo sapiens (Human), UniProt O00329)"
  pIC50: 9.00
- smilesEntry: "C[C@H](Nc1ncnc2[nH]cnc12)c1nc2cccc(Cl)c2c(=O)n1-c1cccc(NC(=O)Nc2ccncc2Cl)c1"
  assayedTarget: "PI3Kδ (Homo sapiens (Human), UniProt O00329)"
  pIC50: 7.59
- smilesEntry: "CNC(=O)Nc1cccc(-n2c([C@H](C)Nc3ncnc(N)c3C#N)nc3cccc(Cl)c3c2=O)c1"
  assayedTarget: "PI3Kδ (Homo sapiens (Human), UniProt O00329)"
  pIC50: 8.22

[1] C[C@H](Nc1nc(N)nc(N)c1Cl)c1nc2c(C#N)cccc2c(=O)n1-c1cccc(C(N)=O)c1
[2] C[C@H](Nc1ncnc(N)c1C#N)c1nc2cccc(Cl)c2c(=O)n1-c1cccc(NC(=O)Nc2ccccc2OCCO)c1
INPUT: Hi there! Just curious which has the higher pIC50 between 1 and 2 . // caller expects the label of the chosen entry
OUTPUT: 2
(2: 8.30, 1: 8.00)

====

molecular target: PI3Kγ (Homo sapiens (Human)); test: TR-FRET enzymatic assay of PI3K isoforms (PI3Kγ); assay type: biochemical; settings: TR-FRET, 2×Km ATP, 2 μM PIP2, PI3Kγ at 2 nM, incubated for 30 minutes at 25° C.; read-out: γ IC50
assayReadout: IC50 (nM)

Consider the worked cases shown below.
- smilesEntry: "CNC(=O)Nc1cccc(-n2c([C@H](C)Nc3ncnc(N)c3C#N)nc3cccc(Cl)c3c2=O)c1"
  IC50 (nM): 4300
- smilesEntry: "C[C@H](Nc1ncnc(N)c1C#N)c1nc2cccc(Cl)c2c(=O)n1-c1cccc(NC(=O)NCCC(C)(C)O)c1"
  IC50 (nM): 7100

[a] C[C@H](Nc1ncnc(N)c1C#N)c1nc2cccc(Cl)c2c(=O)n1-c1cccc(NC(=O)NS(=O)(=O)C2CCCC2)c1
[b] C[C@H](Nc1ncnc(N)c1C#N)c1nc2cccc(Cl)c2c(=O)n1-c1cccc(NC(=O)Nc2ccccc2C(=O)O)c1
[c] Cc1nc(N)nc(N[C@H](c2nc3c(F)ccc(Cl)c3c(=O)n2-c2cccc(C(N)=O)c2)C2CC2)c1C#N
INPUT: Put the molecules in ascending order of IC50. Your reply should list the labels following the order given in the request.
OUTPUT: c, a, b

====

Molecular target: PI3Kγ (Homo sapiens (Human), UniProt P48736)
Test: TR-FRET enzymatic assay of PI3K isoforms (PI3Kγ)
Type: biochemical
Conditions: TR-FRET, 2×Km ATP, 2 μM PIP2, PI3Kγ at 2 nM, incubated for 30 minutes at 25° C.; read-out: γ IC50
Procedure: The compounds of formula (I) were characterized for their enzymatic activity against the PI3K isoforms. Certain compounds of the present application, including certain compounds of formula (II) and (III) were also characterized for their enzymatic activity against PI3K isoforms. The activities were measured using a time-resolved fluorescence resonance energy transfer (TR-FRET) assay.
pIC50: −log10 of the molar value.
assayReadout: pIC50

Consider the worked cases shown below.
- molecule: "CC[C@H](Nc1nc(N)nc(N)c1Cl)c1nc2cccc(C(F)F)c2c(=O)n1-c1cccc(C(N)=O)c1"
  assayReadout: "pIC50"
  resultValue: 5.30
- molecule: "CCNC(=O)Nc1cccc(-n2c([C@@H]3C[C@H](F)CN3c3ncnc(N)c3C#N)nc3cccc(Cl)c3c2=O)c1"
  assayReadout: "pIC50"
  resultValue: 5.25
- molecule: "CCNC(=O)Nc1ccc(C)c(-n2c([C@H](C)Nc3ncnc(N)c3C#N)nc3cccc(Cl)c3c2=O)c1 (atropisomer, axis not shown) [Compound 60]"
  assayReadout: "pIC50"
  resultValue: 6.68

[I] CCC[C@H](Nc1nc(N)nc(N)c1C#N)c1nc2cccc(Cl)c2c(=O)n1-c1cccc(C(N)=O)c1
[II] C[C@H](Nc1nc(N)nc(N)c1Cl)c1nc2cccc(Cl)c2c(=O)n1-c1cccc(C(N)=O)c1
INPUT: I'm curious, which of these has a smaller pIC50 number: I or II ? // caller expects the label of the chosen entry
OUTPUT: II

====

target: PI3Kβ (Homo sapiens (Human)); assay: TR-FRET enzymatic assay of PI3K isoforms (PI3Kβ); conditions: TR-FRET, 2×Km ATP, 2 μM PIP2, incubated for 30 minutes at 25° C.; read-out: β IC50
Sequence (P42338 whole entry, one chain of several, canonical isoform): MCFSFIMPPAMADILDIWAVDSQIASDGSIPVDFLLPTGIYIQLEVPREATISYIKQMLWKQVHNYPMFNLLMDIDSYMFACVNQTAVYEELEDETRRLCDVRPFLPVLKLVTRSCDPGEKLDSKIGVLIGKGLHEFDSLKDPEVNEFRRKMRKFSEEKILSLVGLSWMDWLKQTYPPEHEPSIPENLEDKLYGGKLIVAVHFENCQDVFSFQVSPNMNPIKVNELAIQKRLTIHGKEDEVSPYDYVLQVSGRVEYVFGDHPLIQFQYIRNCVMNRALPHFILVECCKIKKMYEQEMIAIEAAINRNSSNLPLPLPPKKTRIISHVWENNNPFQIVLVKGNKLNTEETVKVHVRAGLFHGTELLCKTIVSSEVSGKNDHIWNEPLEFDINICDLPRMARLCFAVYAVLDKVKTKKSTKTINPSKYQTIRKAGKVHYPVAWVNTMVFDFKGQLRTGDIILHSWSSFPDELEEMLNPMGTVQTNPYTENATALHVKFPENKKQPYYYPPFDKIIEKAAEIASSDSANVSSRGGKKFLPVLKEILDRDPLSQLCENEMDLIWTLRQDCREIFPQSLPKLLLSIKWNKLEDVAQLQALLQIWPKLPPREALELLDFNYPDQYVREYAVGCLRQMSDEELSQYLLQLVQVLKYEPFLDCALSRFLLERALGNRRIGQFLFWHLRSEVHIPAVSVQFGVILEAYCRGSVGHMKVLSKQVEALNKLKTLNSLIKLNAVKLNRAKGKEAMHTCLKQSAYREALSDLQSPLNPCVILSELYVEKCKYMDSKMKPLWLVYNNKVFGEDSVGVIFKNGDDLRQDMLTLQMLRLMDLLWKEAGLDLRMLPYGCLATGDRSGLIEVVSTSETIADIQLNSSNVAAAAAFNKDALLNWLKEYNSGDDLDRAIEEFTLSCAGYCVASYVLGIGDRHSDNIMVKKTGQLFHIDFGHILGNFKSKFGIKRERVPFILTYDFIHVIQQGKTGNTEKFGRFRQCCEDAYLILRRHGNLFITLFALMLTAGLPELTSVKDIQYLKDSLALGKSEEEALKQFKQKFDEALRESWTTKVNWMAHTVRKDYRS
assayReadout: IC50 (nM)

- molecule: "C[C@H](Nc1nc(N)nc(C(F)F)c1C#N)c1nc2c(Cl)cc(F)cc2c(=O)n1-c1cccc(C(N)=O)c1 [Compound 26]"
  unitSpec: "nM"
  IC50: 313
- molecule: "CCNC(=O)Nc1cccc(-n2c([C@@H](C)Nc3ncnc(N)c3C#N)nc3cccc(Cl)c3c2=O)c1 [Compound 44]"
  unitSpec: "nM"
  IC50: 320
- molecule: "NC(=O)c1cccc(-n2c([C@@H](Nc3nc(N)nc(N)c3Cl)C3CC3)nc3cccc(Cl)c3c2=O)c1 [Compound 10]"
  unitSpec: "nM"
  IC50: 7
- molecule: "N#Cc1c(N)nc(N)nc1N[C@H](c1nc2c(Cl)ccc(Cl)c2c(=O)n1-c1cccc(C(N)=O)c1)C1CC1 [Compound 12]"
  unitSpec: "nM"
  IC50: 6

[P] CCNC(=O)Nc1cccc(-n2c([C@H](C)Nc3ncnc(N)c3C#N)nc3cccc(F)c3c2=O)c1 [Compound 47]
[Q] CCNC(=O)Nc1cccc(-n2c([C@H](C)Oc3ncnc4scnc34)nc3cccc(Cl)c3c2=O)c1 [Compound 151]
INPUT: Hi there! Just curious which has the higher IC50 between P and Q . // caller expects the label of the chosen entry
OUTPUT: P
(P: 36 nM, Q: 20 nM)

[A] C[C@H](Nc1ncnc(N)c1C#N)c1nc2cccc(Cl)c2c(=O)n1-c1cccc(NC(=O)NC(C)(C)CCO)c1 [Compound 140]
[B] CCNC(=O)Nc1cccc(-n2c([C@H](C)Nc3ncnc(N)c3C#N)nc3cccc(C)c3c2=O)c1 [Compound 55]
INPUT: I'm curious, which of these has a smaller IC50 number: A or B ? // caller expects the label of the chosen entry
OUTPUT: A
(A: 6 nM, B: 12 nM)
